# Tested on: SK-OV-3
# measurement.notes: NCI tumour cell line growth inhibition, 48 h
The source made the active and inactive calls. Rule as the data show it: active = GI50 up to about 1.1 µM and inactive = higher.
assay.metric: GI50

Worked set:
[
  {
    "compound": "CCc1ccccc1NC(=O)C(C#N)C1=C(Cl)C(=O)c2ccccc2C1=O (stereo not given)",
    "result": "36.6 µM (inactive)"
  },
  {
    "compound": "COC(=O)C1=COC(C)C2CN3CCc4c([nH]c5ccccc45)C3CC12 (stereo not given)",
    "result": "58.7 µM (inactive)"
  },
  {
    "compound": "CCOC(=O)C(NC(=O)c1cccc(Cl)c1)(Nc1ccc(S(=O)(=O)Nc2cc(C)nc(C)n2)cc1)C(F)(F)F (stereo not given)",
    "result": "> 100 µM (inactive)"
  },
  {
    "compound": "CCCC(=O)NC(Nc1ccc(F)cc1)(C(F)(F)F)C(F)(F)F",
    "result": "> 100 µM (inactive)"
  }
]

Now look at this one.
What value of GI50 has been recorded for this entry: "Cc1c(NC(=O)CCl)c(=O)oc2c(C)c3occc(=O)c3cc12"
18.2 µM (inactive)
